# target_or_test_system: human cloned CHRM4 receptor (Homo sapiens, UniProt P08173)
# method_description: CHRM4 Ca++ Flux Assay (M4_CHO cells, agonist mode)
# assay_conditions: geometric mean if tested more than once, read-out: M4 FDSS EC50
metric_name: EC50 (nM)
Record the value in nM, omitting the unit from your answer.

Prompt: Fill in reported EC50 for this entry: O[C@H]1CC[C@@H](c2ccc(F)cc2C2CCN([C@@H]3COC4(C3)CN(c3nnco3)C4)CC2)CC1 (single isomer, unassigned) [Example 3H]
Completion: 10

Prompt: Read the entry c1ccc(C2CCN([C@@H]3COC4(C3)CN(c3ncco3)C4)CC2)c(O[C@H]2CCOC2)c1 and write its reported EC50.
Completion: 17

Prompt: Answer with the recorded EC50 for the compound listed here: COc1ccc(F)cc1C1CCN([C@@H]2COC3(C2)CN(c2nnco2)C3)CC1
Completion: 35

Prompt: Note EC50 for the compound shown: COc1cc(F)ccc1C1CCN([C@@H]2COC3(C2)CN(c2ncns2)C3)CC1
Completion: 345

Prompt: Quote EC50 reported for CC(C)(O)COc1ccc(F)cc1C1CCN([C@@H]2COC3(C2)CN(c2ncco2)C3)CC1 please.
Completion: 25

Prompt: Specify reported EC50 for the compound shown: COc1cc(F)ccc1C1CCN([C@@H]2COC3(C2)CN(c2nncs2)C3)CC1
Completion: 208

Prompt: Give the reported EC50 for this compound. Fc1cc(F)c(OC2CC3(COC3)C2)c(C2CCN([C@@H]3COC4(C3)CN(c3nnco3)C4)CC2)c1
Completion: 210

---

# target_or_test_system: human cloned CHRM4 receptor (Homo sapiens, UniProt P08173)
# Sequence (P08173 1-479): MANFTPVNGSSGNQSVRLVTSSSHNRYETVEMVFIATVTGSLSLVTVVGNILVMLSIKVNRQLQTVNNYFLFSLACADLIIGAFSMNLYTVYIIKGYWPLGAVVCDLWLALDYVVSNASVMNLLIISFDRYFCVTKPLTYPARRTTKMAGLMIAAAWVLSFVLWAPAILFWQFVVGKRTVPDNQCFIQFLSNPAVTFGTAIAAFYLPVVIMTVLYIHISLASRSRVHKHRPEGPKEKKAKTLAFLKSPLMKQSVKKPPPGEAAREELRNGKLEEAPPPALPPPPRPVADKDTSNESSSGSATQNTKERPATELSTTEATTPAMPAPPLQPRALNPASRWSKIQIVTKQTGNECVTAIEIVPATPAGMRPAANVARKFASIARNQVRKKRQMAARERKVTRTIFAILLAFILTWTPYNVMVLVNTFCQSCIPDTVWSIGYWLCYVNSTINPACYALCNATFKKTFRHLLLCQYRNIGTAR
# method_description: CHRM4 Ca++ Flux Assay (M4_CHO cells, agonist mode)
# assay_conditions: geometric mean if tested more than once, read-out: M4 FDSS EC50
metric_name: pEC50
In plain terms, pEC50 is the concentration in mol/L turned into minus its base-10 logarithm.

Prompt: Determine its reported pEC50: Fc1cc(OC2CCOCC2)c(C2CCN([C@@H]3COC4(C3)CN(c3nnco3)C4)CC2)cc1F [Example 2GG]
Completion: 7.06

Prompt: Given CC(C)(O)CCOc1ccc(F)cc1C1CCN([C@@H]2COC3(C2)CN(c2nncs2)C3)CC1 [Example 5P] , respond with its pEC50.
Completion: 7.07

Prompt: State its pEC50: Fc1ccc(OC[C@@H]2COCCO2)c(C2CCN([C@@H]3COC4(C3)CN(c3nncs3)C4)CC2)c1 [Example 5L]
Completion: 7.42

Prompt: Name the recorded pEC50 of the item OC1(COc2ccc(F)cc2C2CCN([C@@H]3COC4(C3)CN(c3nnco3)C4)CC2)COC1 [Example 2U] in your answer.
Completion: 7.92

Prompt: Tell us which pEC50 value is on record for c1ccc(C2CCN([C@@H]3COC4(C3)CN(c3nnco3)C4)CC2)c(O[C@@H]2CCOC2)c1 [Example 1O]
Completion: 7.59

Prompt: Note pEC50 for the compound shown: c1ccc(C2CCN([C@@H]3COC4(C3)CN(c3nnco3)C4)CC2)c(-c2ncco2)c1 [Example 1X]
Completion: 6.95

Prompt: Please indicate pEC50 recorded for CC(C)(O)[C@H]1C[C@H](Oc2ccc(F)cc2C2CCN([C@@H]3COC4(C3)CN(c3nnco3)C4)CC2)C1 (single isomer, unassigned) [Example 2V]
Completion: 7.03
